System: MOLM-13
Conditions: 72 h

SAMPLE SMILES	COMPARISON OPERATOR	IC50 (cell viability) [µM]
CO[C@H]1C[C@@H]2CC[C@@H](C)[C@@](O)(O2)C(=O)C(=O)N2CCCC[C@H]2C(=O)O[C@H]([C@H](C)C[C@@H]2CC[C@@H](OC(=O)C(C)(CO)CO)[C@H](OC)C2)CC(=O)[C@H](C)/C=C(\C)[C@@H](O)[C@@H](OC)C(=O)[C@H](C)C[C@H](C)/C=C/C=C/C=C/1C	=	0.00198
C[C@]12C=CC(=O)C=C1CC[C@@H]1[C@@H]2[C@@H](O)C[C@@]2(C)[C@H]1CC[C@]2(O)C(=O)CO	>	10
CCn1c(=Cc2cccc[n+]2CC)sc(=C2Sc3ccccc3N2C)c1=O	=	3.76
Cc1[nH]nc(C(F)(F)F)c1Cc1sc2c(c1C(=O)N1C[C@](C)(O)CO1)c(=O)n(C)c(=O)n2C(C)C	>	10
Cc1cc2c(C(C)C)c(O)c(O)c(C=O)c2c(O)c1-c1c(C)cc2c(C(C)C)c(O)c(O)c(C=O)c2c1O	=	2.98
COC(=O)c1cc2c(C(F)(F)F)cc(-c3ccccc3)cc2n1O	>	10

----------
Test system: ML-2
Experiment: cell viability (% survival relative to DMSO control, bortezomib = 0%); higher = less cytotoxic
Details: 1000 nM; 72 h
ASSAY METRIC: cell viability (%)

SAMPLE SMILES	REPORTED VALUE
CC(=O)Nc1nc(C)c(-c2ccc(Cl)c(S(=O)(=O)NCCO)c2)s1	38.3
CCCc1nc(C)c2c(=O)nc(-c3cc(S(=O)(=O)N4CCN(CC)CC4)ccc3OCC)[nH]n12	97.4
CCCCCOC(=O)Nc1nc(=O)n([C@@H]2O[C@H](C)[C@@H](O)[C@H]2O)cc1F	94.1
CO[C@H]1C[C@@H]2CC[C@@H](C)[C@@](O)(O2)C(=O)C(=O)N2CCCC[C@H]2C(=O)O[C@H]([C@H](C)C[C@@H]2CC[C@@H](OC(=O)C(C)(CO)CO)[C@H](OC)C2)CC(=O)[C@H](C)/C=C(\C)[C@@H](O)[C@@H](OC)C(=O)[C@H](C)C[C@H](C)/C=C/C=C/C=C/1C	60.3
Cc1c2c(=O)n(-c3ccccc3Cl)[nH]c2cc(=O)n1Cc1ccccn1	98.6
O=c1c(-c2ccc(O)cc2)coc2cc(O[C@@H]3O[C@H](CO)[C@@H](O)[C@H](O)[C@H]3O)ccc12	112
CCc1oc2ccccc2c1C(=O)c1cc(Br)c(O)c(Br)c1	93.4
CO[C@H]1C[C@@H]2CC[C@@H](C)[C@@](O)(O2)C(=O)C(=O)N2CCCC[C@H]2C(=O)O[C@H]([C@H](C)C[C@@H]2CC[C@@H](OCCO)[C@H](OC)C2)CC(=O)[C@H](C)/C=C(\C)[C@@H](O)[C@@H](OC)C(=O)[C@H](C)C[C@H](C)/C=C/C=C/C=C/1C	58.6
CCn1c(=Cc2cccc[n+]2CC)sc(=C2Sc3ccccc3N2C)c1=O	102

----------
Tested on: NOMO-1
Experiment: cell viability (% survival relative to DMSO control, bortezomib = 0%); higher = less cytotoxic
Details: 10 nM; 72 h
ASSAY METRIC: cell viability

> print(dat)
                                    compound  reported.value
 1  CC(C)(C)c1ccc(S(=O)(=O)NCc2ccc(C(=O)Nc3cccnc3)cc2)cc1           95.7%
 2  C[C@H]1c2cccc(O)c2C(=O)C2C(=O)[C@]3(O)C(=O)C(C(N)=O)C(=O)[C@@H](N(C)C)[C@@H]3[C@@H](O)[C@@H]21 (stereo partly specified)             92%
 3         O=c1cc(-c2ccccc2)oc2c1ccc1ccccc12           94.3%
 4  OC[C@H]1O[C@@H](n2cnc3c2N=CNC[C@H]3O)C[C@@H]1O           94.3%
 5  CCCCCCCC/C=C\CCCCCCCC(=O)Nc1ccccc1 [Octadec-9-Enoic Acid Phenylamide]           97.1%
 6   CCc1oc2ccccc2c1C(=O)c1cc(Br)c(O)c(Br)c1            103%
 7  Cc1cc2c(C(C)C)c(O)c(O)c(C=O)c2c(O)c1-c1c(C)cc2c(C(C)C)c(O)c(O)c(C=O)c2c1O           97.5%
 8  O=c1c(-c2ccc(O)cc2)coc2cc(O[C@@H]3O[C@H](CO)[C@@H](O)[C@H](O)[C@H]3O)ccc12           99.7%
 9  CC/C=C\C[C@H]1C(=O)CC[C@@H]1CC(=O)OC [Methyl jasmonate]            110%
10  N#C/C(=C\c1ccc(O)cc1)C(=O)O [alpha-cyano-4-hydroxycinnamic acid]           96.2%
11      N#Cc1ccc(N(Cc2ccc(Br)cc2)n2cnnc2)cc1            104%
12                CCN(CC)C(=S)SSC(=S)N(CC)CC           99.4%
13     CN(CCOc1ccc(Cc2sc(O)nc2O)cc1)c1ccccn1            107%
14  c1cc(-c2cnn3cc(-c4ccc(OCCN5CCCCC5)cc4)cnc23)ccn1            105%
15            CC[C@H](C)[C@H](N)C(=O)N1CCSC1            102%
16  Cc1c(Cl)cccc1S(=O)(=O)Nc1nc(CC(=O)N2CCN(C)CC2)cs1           97.6%

----------
cell viability by entry:
Test system: myeloid leukemia patient primary cells Pat.7
Assay: cell viability (% survival relative to DMSO control); higher = less cytotoxic
Conditions: 10 nM; 72 h
ASSAY METRIC: cell viability (%)

COMPOUND	COMPARISON OPERATOR	REPORTED VALUE
Cc1c2c(=O)n(-c3ccccc3Cl)[nH]c2cc(=O)n1Cc1ccccn1	=	82.9
O=C(/C=C/c1ccc(O)c(O)c1)OCCc1ccccc1	=	79.4
CO[C@H]1C[C@@H]2CC[C@@H](C)[C@@](O)(O2)C(=O)C(=O)N2CCCC[C@H]2C(=O)O[C@H]([C@H](C)C[C@@H]2CC[C@@H](OC(=O)C(C)(CO)CO)[C@H](OC)C2)CC(=O)[C@H](C)/C=C(\C)[C@@H](O)[C@@H](OC)C(=O)[C@H](C)C[C@H](C)/C=C/C=C/C=C/1C	=	68.2
C=CCN(C)CCCCCCOc1ccc(C(=O)c2ccc(Br)cc2)c(F)c1.O=C(O)/C=C/C(=O)O [Ro 48-8071 fumarate]	>	100

----------
System: NOMO-1
Experiment: cell viability (% survival relative to DMSO control, bortezomib = 0%); higher = less cytotoxic
Conditions: 1000 nM; 72 h
Counter-ions that a name gives are not always drawn.
Checkbox rule: cell viability lower than 90% = T; cell viability not lower than 90% = F.

COMPOUND	LABEL CLASS
CCCCCN(C)CCC(O)(P(=O)(O)O)P(=O)(O)O [Ibandronate]	F
N#Cc1ccc(N(Cc2ccc(Br)cc2)n2cnnc2)cc1 [YM511]	F
CC(C)CC(=O)N[C@H](C(=O)N[C@H](C(=O)N[C@@H](CC(C)C)[C@@H](O)CC(=O)N[C@@H](C)C(=O)N[C@@H](CC(C)C)[C@@H](O)CC(=O)O)C(C)C)C(C)C [Pepstatin A]	F
CN(CCOc1ccc(Cc2sc(O)nc2O)cc1)c1ccccn1 [Rosiglitazone]	F
CC/C=C\C[C@H]1C(=O)CC[C@@H]1CC(=O)OC [Methyl jasmonate]	F
O=C(/C=C/c1ccc(O)c(O)c1)OCCc1ccccc1 [Caffeic acid phenethyl ester]	T
N[C@@H](CC(=O)N1CCn2c(nnc2C(F)(F)F)C1)Cc1cc(F)c(F)cc1F [Sitagliptin]	F
CCN(CCO)CCCC(C)Nc1ccnc2cc(Cl)ccc12 (configuration not stated) [Hydroxychloroquine sulfate]	F
Cc1cc(C(=O)NNCc2ccccc2)no1 [Isocarboxazid]	F
CC(C)(C)c1ccc(S(=O)(=O)NCc2ccc(C(=O)Nc3cccnc3)cc2)cc1 [STF-31]	T
CCCCCOC(=O)Nc1nc(=O)n([C@@H]2O[C@H](C)[C@@H](O)[C@H]2O)cc1F [Capecitabine]	F

----------
Tested on: myeloid leukemia patient primary cells Pat.8
Experiment: cell viability (% survival relative to DMSO control); higher = less cytotoxic
Conditions: 1000 nM; 72 h
ASSAY METRIC: cell viability (%)

> print(dat)
                              sample.smiles  reported.value
1     O=c1cc(N2CCOCC2)oc2c(-c3ccccc3)cccc12            67.1
2  C[C@]12C=CC(=O)C=C1CC[C@@H]1[C@@H]2[C@@H](O)C[C@@]2(C)[C@H]1CC[C@]2(O)C(=O)CO            59.3
3                      O=C(O)CC[N+](=O)[O-]            96.3
4  CN1CCN(CCCN2c3ccccc3Sc3ccc(C(F)(F)F)cc32)CC1            69.8
5       O=C(/C=C/c1ccc(O)c(O)c1)OCCc1ccccc1              29

The reported measurements were obtained from the supplement of paper PMC8671470.
